// data source = patent US11731976B2

# system under test: human NaV1.6 (hNaV1.6) (Homo sapiens, UniProt Q9UQD0)
# Construct: expressed in transfected cells; host or cells: HEK-293
# Sequence (Q9UQD0 whole entry): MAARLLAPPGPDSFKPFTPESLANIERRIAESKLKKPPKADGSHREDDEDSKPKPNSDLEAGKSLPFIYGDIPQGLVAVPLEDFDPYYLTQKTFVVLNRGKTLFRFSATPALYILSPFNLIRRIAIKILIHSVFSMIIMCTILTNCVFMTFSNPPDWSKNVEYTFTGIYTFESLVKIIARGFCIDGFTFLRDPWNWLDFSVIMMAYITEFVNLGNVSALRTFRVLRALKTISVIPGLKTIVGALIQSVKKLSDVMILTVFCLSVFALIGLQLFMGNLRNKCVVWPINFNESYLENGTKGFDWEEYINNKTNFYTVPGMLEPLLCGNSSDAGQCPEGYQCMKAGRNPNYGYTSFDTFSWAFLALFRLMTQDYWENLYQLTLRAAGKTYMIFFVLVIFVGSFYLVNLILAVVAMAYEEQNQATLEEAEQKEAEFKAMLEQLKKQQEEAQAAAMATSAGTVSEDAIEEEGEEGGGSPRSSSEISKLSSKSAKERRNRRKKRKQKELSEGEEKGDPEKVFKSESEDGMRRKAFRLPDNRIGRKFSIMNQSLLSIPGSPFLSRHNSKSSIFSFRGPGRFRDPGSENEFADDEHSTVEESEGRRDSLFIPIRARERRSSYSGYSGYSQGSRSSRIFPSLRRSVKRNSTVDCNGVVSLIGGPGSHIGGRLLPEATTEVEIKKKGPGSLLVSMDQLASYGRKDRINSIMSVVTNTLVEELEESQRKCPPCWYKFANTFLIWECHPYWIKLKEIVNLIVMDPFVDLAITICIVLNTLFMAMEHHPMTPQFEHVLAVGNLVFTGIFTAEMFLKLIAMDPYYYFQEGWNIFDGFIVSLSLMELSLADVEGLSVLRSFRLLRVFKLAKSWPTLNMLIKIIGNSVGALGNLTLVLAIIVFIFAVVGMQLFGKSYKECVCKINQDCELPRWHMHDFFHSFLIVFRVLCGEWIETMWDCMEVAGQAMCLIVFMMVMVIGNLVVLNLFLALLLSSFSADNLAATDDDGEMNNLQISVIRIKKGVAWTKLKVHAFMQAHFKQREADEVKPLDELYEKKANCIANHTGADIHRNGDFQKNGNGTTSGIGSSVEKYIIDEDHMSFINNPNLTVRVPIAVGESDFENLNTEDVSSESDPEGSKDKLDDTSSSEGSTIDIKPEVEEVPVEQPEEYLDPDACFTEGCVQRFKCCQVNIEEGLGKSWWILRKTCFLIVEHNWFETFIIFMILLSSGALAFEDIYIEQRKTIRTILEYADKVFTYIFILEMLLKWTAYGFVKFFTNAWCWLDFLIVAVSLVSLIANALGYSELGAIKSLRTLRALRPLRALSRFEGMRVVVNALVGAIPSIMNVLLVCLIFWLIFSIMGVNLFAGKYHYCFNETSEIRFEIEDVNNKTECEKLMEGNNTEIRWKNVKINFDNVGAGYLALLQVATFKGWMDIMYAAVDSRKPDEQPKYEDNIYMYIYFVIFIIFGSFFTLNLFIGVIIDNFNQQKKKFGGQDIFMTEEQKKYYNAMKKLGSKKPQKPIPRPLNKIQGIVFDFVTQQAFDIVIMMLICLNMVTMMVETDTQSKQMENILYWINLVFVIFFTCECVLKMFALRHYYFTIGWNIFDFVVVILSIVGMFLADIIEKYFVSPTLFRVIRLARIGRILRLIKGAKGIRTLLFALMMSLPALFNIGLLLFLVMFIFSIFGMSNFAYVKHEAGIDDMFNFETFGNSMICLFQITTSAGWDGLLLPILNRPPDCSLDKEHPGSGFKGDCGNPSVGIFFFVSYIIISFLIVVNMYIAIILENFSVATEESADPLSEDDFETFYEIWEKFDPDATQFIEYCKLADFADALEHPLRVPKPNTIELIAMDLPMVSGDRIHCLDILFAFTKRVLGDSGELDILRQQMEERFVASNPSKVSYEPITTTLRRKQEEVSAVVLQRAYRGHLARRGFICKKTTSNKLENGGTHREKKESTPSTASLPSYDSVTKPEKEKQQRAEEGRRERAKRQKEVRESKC
# assay comment: Modulation of late sodium current (INaL), PatchXpress electrophysiology, HEK-293 cells expressing hNaV1.6
# Type: cell-based
# run parameters: HEK293, late current evoked by 300 nM ATX-II, read-out: NaV 1.6 Assay Data: percent inhibition of INaL at hNaV1.6
Measured inhibition at 1 µM accompanies every entry in the list below.
value type: inhibition at 1 µM

INSERT INTO assay_data (molecule, measured_result) VALUES
  ('COCc1nnc2ccc(-c3cnc(OC(C)(C)C(F)(F)F)c(F)c3)cn12', '> 70%'),
  ('CCOC(F)(F)c1nnc2ccc(-c3cnc(O[C@@H](C)C(F)(F)F)c(F)c3)nn12', '> 70%'),
  ('Fc1cc(-c2ccc3nnc(C(F)(F)OCC4CC4)n3c2)cnc1OCC(F)(F)F', '> 70%'),
  ('COC(F)(F)c1nnc2cnc(-c3cnc(OCC(F)(F)F)c(F)c3)c(C)n12', '30 to 70%'),
  ('COCCOC(F)(F)c1nnc2cnc(-c3ccc(OCC(F)(F)F)nc3)cn12', '30 to 70%'),
  ('CC(C)OC(F)(F)c1nnc2ccc(-c3cnc(OCC(F)(F)F)c(F)c3)cn12', '> 70%'),
  ('COC(F)(F)c1nnc2cc(C)c(-c3cnc(OCC(F)(F)F)c(F)c3)nn12', '30 to 70%'),
  ('CCOC(F)(F)c1nnc2cnc(-c3cnc(O[C@H](C)C(F)(F)F)c(F)c3)cn12', '> 70%'),
  ('CCOC(F)(F)c1nnc2cnc(-c3ccc(O[C@H](C)C(F)(F)F)nc3)cn12', '> 70%'),
  ('COC(F)(F)c1nnc2ccc(-c3cnc(OCC(F)(F)F)c(F)c3)cn12', '> 70%'),
  ('COC(F)(F)c1nnc2ccc(-c3cnc(O[C@H](C)C(F)(F)F)c(F)c3)cn12', '> 70%'),
  ('CCOC(F)(F)c1nnc2ccc(-c3cnc(O[C@H](C)C(F)(F)F)c(F)c3)nn12', '> 70%');
